The origin of these recorded values is patent US20260116991A1.

- tested_system: biotinylated labeled human GPC3 protein (produced in-house) (human, UniProt P51654 25-559, limits assumed, biotinylated (Dojindo, Cat. No. LK03); sites not stated)
- protocol_summary: ELISA, biotinylated human GPC3 protein
We label by threshold. Values of OD450 at 13.33 nM strictly beneath 2 OD450 are condition met. Values of 2 OD450 and up are condition not met.

# example entries with known answers
hAb005LH3L1b (antibody, human IgG1, V domains shown, Humanized F3.54.12; VH H3 + VL L1b; expressed as human IgG1) VH: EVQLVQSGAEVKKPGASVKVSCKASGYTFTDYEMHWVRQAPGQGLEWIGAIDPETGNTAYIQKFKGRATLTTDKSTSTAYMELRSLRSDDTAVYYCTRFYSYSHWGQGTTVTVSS VL: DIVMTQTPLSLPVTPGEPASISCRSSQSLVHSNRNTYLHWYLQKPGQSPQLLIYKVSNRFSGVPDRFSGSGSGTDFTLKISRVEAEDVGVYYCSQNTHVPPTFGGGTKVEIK    condition met
hAb005LH2L1 (antibody, human IgG1, V domains shown, Humanized F3.54.12; VH H2 + VL L1; expressed as human IgG1) VH: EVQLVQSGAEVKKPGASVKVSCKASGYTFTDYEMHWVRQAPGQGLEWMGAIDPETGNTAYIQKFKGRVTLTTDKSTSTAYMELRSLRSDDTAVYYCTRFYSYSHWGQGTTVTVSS VL: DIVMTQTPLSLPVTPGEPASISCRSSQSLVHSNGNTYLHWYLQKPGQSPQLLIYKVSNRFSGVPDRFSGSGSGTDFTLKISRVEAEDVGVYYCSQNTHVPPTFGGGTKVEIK    condition met
hAb007LH1L1a (antibody, human IgG1, V domains shown, Humanized F3.81.19; VH H1 + VL L1a; expressed as human IgG1) VH: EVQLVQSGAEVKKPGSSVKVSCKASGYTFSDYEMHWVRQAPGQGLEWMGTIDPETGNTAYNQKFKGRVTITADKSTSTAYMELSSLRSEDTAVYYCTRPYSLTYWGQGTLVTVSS VL: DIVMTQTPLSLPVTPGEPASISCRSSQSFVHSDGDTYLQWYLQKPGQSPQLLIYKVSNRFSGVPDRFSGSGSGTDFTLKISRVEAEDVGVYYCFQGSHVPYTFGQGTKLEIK    condition not met
hAb006LH2L1a (antibody, human IgG1, V domains shown, Humanized F3.38.7; VH H2 + VL L1a; expressed as human IgG1) VH: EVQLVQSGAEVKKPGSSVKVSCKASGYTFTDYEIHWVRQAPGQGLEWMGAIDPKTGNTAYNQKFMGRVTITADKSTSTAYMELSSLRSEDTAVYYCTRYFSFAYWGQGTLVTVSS VL: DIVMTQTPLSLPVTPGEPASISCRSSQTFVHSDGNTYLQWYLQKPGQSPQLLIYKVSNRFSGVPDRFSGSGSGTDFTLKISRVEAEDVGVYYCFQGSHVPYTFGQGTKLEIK    condition met
hAb001H2L1 (antibody, human IgG1, V domains shown, Humanized F2.169.2; VH H2 + VL L1; expressed as human IgG1) VH: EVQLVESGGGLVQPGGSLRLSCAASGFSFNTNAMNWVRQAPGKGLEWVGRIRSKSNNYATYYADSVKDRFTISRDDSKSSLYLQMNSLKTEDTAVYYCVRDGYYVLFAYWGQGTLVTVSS VL: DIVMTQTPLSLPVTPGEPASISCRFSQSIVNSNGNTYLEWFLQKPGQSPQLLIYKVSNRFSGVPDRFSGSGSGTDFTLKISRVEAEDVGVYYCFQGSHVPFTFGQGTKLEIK    condition not met

Q: For hAb006LH1L1 (antibody, human IgG1, V domains shown, Humanized F3.38.7; VH H1 + VL L1; expressed as human IgG1) VH: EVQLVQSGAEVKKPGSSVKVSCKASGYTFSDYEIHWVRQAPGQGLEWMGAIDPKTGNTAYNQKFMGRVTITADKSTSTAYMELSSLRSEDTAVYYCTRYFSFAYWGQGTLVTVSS VL: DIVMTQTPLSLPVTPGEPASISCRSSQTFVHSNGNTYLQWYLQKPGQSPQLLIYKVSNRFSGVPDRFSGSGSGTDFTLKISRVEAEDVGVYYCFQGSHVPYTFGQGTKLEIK , is the recorded OD450 at 13.33 nM below the cut-off of 2 OD450?
Ans: condition not met

Q: I wonder whether hAb005LH2L1a (antibody, human IgG1, V domains shown, Humanized F3.54.12; VH H2 + VL L1a; expressed as human IgG1) VH: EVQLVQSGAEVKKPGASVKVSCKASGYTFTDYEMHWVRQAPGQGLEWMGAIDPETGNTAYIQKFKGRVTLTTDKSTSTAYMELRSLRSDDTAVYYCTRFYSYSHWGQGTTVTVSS VL: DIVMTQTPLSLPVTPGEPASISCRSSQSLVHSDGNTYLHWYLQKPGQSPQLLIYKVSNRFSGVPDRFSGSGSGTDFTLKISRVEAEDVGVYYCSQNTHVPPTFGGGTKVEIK has OD450 at 13.33 nM below 2 OD450. Can you tell?
Ans: condition met

Q: OD450 at 13.33 nM strictly < 2 OD450 for this binder? hAb005LH1L1b (antibody, human IgG1, V domains shown, Humanized F3.54.12; VH H1 + VL L1b; expressed as human IgG1) VH: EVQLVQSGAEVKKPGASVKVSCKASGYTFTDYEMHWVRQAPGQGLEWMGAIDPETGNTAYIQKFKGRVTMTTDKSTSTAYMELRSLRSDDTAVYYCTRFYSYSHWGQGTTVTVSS VL: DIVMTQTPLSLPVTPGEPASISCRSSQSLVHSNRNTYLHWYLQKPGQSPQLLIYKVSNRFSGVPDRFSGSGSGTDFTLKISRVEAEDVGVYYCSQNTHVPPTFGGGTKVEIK
Ans: condition met

Q: Is 2 OD450 strictly greater than the binder's reported OD450 at 13.33 nM? binder: hAb006LH2L1 (antibody, human IgG1, V domains shown, Humanized F3.38.7; VH H2 + VL L1; expressed as human IgG1) VH: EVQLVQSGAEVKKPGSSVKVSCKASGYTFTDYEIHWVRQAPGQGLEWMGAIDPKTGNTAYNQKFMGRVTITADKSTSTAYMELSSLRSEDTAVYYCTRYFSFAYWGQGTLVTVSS VL: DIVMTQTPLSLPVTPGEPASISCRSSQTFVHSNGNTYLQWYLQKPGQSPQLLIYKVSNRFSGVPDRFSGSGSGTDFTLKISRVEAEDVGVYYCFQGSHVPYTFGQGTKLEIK
Ans: condition not met

Q: Hi there! Is OD450 at 13.33 nM for hAb001H2L1a (antibody, human IgG1, V domains shown, Humanized F2.169.2; VH H2 + VL L1a; expressed as human IgG1) VH: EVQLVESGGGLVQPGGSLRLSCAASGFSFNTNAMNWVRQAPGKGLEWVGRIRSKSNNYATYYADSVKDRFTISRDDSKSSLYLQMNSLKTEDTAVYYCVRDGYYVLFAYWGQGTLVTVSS VL: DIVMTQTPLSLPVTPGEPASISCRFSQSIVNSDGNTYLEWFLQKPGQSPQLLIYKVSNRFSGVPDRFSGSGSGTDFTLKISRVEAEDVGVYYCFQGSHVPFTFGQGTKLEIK below 2 OD450, do you know?
Ans: condition not met
